# Target Or Test System: human FPRL2 (Homo sapiens, UniProt P25089)
# Sequence (P25089 whole entry): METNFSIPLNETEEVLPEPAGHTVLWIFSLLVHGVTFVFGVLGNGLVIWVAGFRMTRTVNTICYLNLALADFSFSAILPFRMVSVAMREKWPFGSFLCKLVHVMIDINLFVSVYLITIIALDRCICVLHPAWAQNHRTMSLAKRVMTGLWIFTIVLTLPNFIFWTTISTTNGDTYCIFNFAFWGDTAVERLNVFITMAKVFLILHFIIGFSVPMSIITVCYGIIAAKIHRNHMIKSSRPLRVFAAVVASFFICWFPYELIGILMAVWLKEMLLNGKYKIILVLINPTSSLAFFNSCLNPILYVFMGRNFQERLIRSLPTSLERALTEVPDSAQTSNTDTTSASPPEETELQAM
# Test Details: Intracellular calcium measurements (FLIPR), agonistic activity in HEK293-hFPRL2-Gα16 cells
# Conditions: Fluo-4 calcium FLIPR, normalized to GLY14-Humanin 100 nM
Test Readout: EC50 (µM)

P: COCC(Cc1ccccc1)NC(=O)C1C(C(=O)Nc2ccc(Br)cc2)C2C=CC1C21CC1 (centres unmarked) [Example 100]
Q: CC(=O)c1cnc(CNC(=O)[C@H]2[C@H](C(=O)NCCCCN3CCCC3)[C@H]3C=C[C@@H]2C32CC2)s1 (racemic) [Example 351]
Identify the entry with the smaller EC50: P or Q . Respond with the label that goes with your answer.
Q
(Q: 0.094 µM, P: 6.11 µM)

1: O=C(NCCCCN1CCOCC1)[C@H]1[C@H](C(=O)Nc2ccc(Br)cc2)[C@@H]2C=C[C@H]1C21CC1 [Example 211]
2: O=C(Nc1ccnn1-c1ccccc1)[C@H]1[C@H](C(=O)Nc2ccc(Br)cc2)[C@@H]2C=C[C@H]1C21CC1 (racemic) [Example 72]
Recorded EC50 values differ for 1 and 2 ; which one is higher? Respond with the label that goes with your answer.
2

---

# Target Or Test System: human ALX receptor (Homo sapiens, UniProt P25090)
# Test Details: Intracellular calcium measurements (FLIPR), agonistic activity in HEK293-hALXR-Gα16 cells
# Conditions: Fluo-4 calcium FLIPR, normalized to WKYMVm 10 nM
Test Readout: EC50 (µM)

A: CCN(CC)CCCNC(=O)[C@H]1[C@H](C(=O)Nc2ccc(Br)cc2)[C@@H]2C=C[C@H]1C21CC1 (racemic)
B: O=C(NCCCCN1CCCC1)[C@H]1[C@H](C(=O)NCc2cc(F)c(Br)cc2F)[C@@H]2C=C[C@H]1C21CC1
Identify the entry with the smaller EC50: A or B . Respond with the label that goes with your answer.
A

---

# Target Or Test System: human ALX receptor (Homo sapiens)
# Sequence (P25090 1-351): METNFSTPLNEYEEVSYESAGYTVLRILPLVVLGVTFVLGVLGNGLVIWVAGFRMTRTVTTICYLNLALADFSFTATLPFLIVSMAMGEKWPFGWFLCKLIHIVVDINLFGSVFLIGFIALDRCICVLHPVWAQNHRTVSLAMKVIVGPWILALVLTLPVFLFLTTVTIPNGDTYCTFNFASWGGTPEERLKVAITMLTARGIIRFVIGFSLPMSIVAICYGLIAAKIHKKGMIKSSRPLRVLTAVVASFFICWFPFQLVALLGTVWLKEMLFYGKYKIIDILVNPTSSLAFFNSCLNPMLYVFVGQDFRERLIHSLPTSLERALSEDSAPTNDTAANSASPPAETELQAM
# Test Details: Intracellular calcium measurements (FLIPR), agonistic activity in HEK293-hALXR-Gα16 cells
# Conditions: Fluo-4 calcium FLIPR, normalized to WKYMVm 10 nM
# Description: The ALX receptor and FPRL2 agonistic activities of the compounds of formula (I) are determined in accordance with the following experimental method. Intracellular Calcium Measurements: Cells expressing recombinant human ALX receptor and the G-protein Gα16 (HEK293-hALXR-Gα16) were grown to 80% confluency in Growing Medium (GM). […] Changes in fluorescence were monitored before and after the addition of test compounds at lex=488 nm and lem=540 nm. […]
Test Readout: EC50 (nM)

Some solved cases for reference:
Cc1ccc(C)c(CNC(=O)[C@H]2[C@H](C(=O)NCCCCN3CCCC3)[C@H]3C=C[C@@H]2C32CC2)c1 (racemic)    11100
O=C(NCCCCN1CCCC1)[C@H]1[C@H](C(=O)Nc2cnc(Br)c(F)c2)[C@@H]2CC[C@H]1C21CC1    349
O=C(NC[C@H]1[C@H](C(=O)Nc2ccc(Br)cc2)[C@@H]2C=C[C@H]1C21CC1)c1cccc(F)c1Cl (racemic)    158

a: NCc1cccc(CNC(=O)[C@H]2[C@H](C(=O)NCc3ccc(Br)cc3)[C@@H]3C=C[C@H]2C32CC2)c1 (racemic)
b: COc1cc(F)c(CNC(=O)[C@H]2[C@H](C(=O)NCCCCN3CCCC3)[C@H]3C=C[C@@H]2C32CC2)c(F)c1 (racemic)
c: O=C(NCCCCN1CCCC1)[C@H]1[C@H](C(=O)Nc2ncc([N+](=O)[O-])s2)[C@@H]2C=C[C@H]1C21CC1 (racemic)
d: O=C(NCCn1cncn1)[C@H]1[C@H](C(=O)Nc2ccc(Br)cc2)[C@@H]2C=C[C@H]1C21CC1 (racemic)
e: NCCCCNC(=O)[C@H]1[C@H](C(=O)Nc2ccc(Br)cc2)[C@@H]2C=C[C@H]1C21CC1 (relative stereo)
Arrange the 5 entries by EC50 so the values rise. Form field (ranking): labels in requested order.
e, d, a, c, b

A: O=C(Nc1ccnn1-c1ccccc1)[C@H]1[C@H](C(=O)Nc2ccc(Br)cc2)[C@@H]2C=C[C@H]1C21CC1 (racemic)
B: CC(C)CCNC(=O)[C@H]1[C@H](C(=O)Nc2ccc(Br)cc2)[C@@H]2C=C[C@H]1C21CC1 (racemic)
C: CC(=O)N1CCN(CCCCNC(=O)[C@H]2[C@H](C(=O)Nc3ccc(Br)cc3)[C@@H]3C=C[C@H]2C32CC2)CC1
D: NCC1CCN(C(=O)C2C(C(=O)Nc3ncc(Br)s3)C3CCC2C32CC2)CC1 (stereo not shown)
Order these by EC50, descending, and give the full ranking. Form field (ranking): labels in requested order.
A, C, B, D
(A: 70 nM, C: 38 nM, B: 20 nM, D: 6.2 nM)

---

# Target Or Test System: human ALX receptor (Homo sapiens)
# Construct: expressed in transfected cells; host or cells: HEK293 (HEK293-hALXR-Gα16)
# Test Details: Intracellular calcium measurements (FLIPR), agonistic activity in HEK293-hALXR-Gα16 cells
# Format: cell-based
# Conditions: Fluo-4 calcium FLIPR, normalized to WKYMVm 10 nM
# Procedure: The ALX receptor and FPRL2 agonistic activities of the compounds of formula (I) are determined in accordance with the following experimental method. Intracellular Calcium Measurements: Cells expressing recombinant human ALX receptor and the G-protein Gα16 (HEK293-hALXR-Gα16) were grown to 80% confluency in Growing Medium (GM). […] Changes in fluorescence were monitored before and after the addition of test compounds at lex=488 nm and lem=540 nm. […]
Test Readout: EC50 (nM)

Some solved cases for reference:
N#Cc1cnc(NC(=O)[C@H]2[C@H](C(=O)NCCCCN3CCCC3)[C@H]3C=C[C@@H]2C32CC2)s1 (racemic)    166
CN1CCN(CCCCNC(=O)[C@H]2[C@H](C(=O)Nc3ccc(Br)cc3)[C@@H]3C=C[C@H]2C32CC2)CC1    4.1

A: CC(C)(CN)CNC(=O)[C@H]1[C@H](C(=O)NCc2ccc(Br)cc2)[C@@H]2C=C[C@H]1C21CC1 (racemic)
B: O=C(NCCCCN1CCCC1)[C@H]1[C@H](C(=O)Nc2ccc(C(F)(F)F)cn2)[C@@H]2C=C[C@H]1C21CC1 (racemic)
Identify the entry with the smaller EC50: A or B . Respond with the label that goes with your answer.
A
(A: 26 nM, B: 82 nM)

---

# Target Or Test System: human ALX receptor (Homo sapiens, UniProt P25090)
# Test Details: Intracellular calcium measurements (FLIPR), agonistic activity in HEK293-hALXR-Gα16 cells
# Conditions: Fluo-4 calcium FLIPR, normalized to WKYMVm 10 nM
pEC50: −log10 of the molar value.
Test Readout: pEC50

Some solved cases for reference:
CC(C)(C)c1cc(NC(=O)[C@H]2[C@H](C(=O)NCCCCN3CCCC3)[C@H]3C=C[C@@H]2C32CC2)no1 (racemic) [Example 145]    5.44
CC(C)(CO)NC(=O)[C@H]1[C@H](C(=O)Nc2ncc(Br)s2)[C@@H]2CC[C@H]1C21CC1 [Example 406]    6.48
NCc1ccc(CNC(=O)[C@H]2[C@H](C(=O)Nc3ncc(Br)s3)[C@@H]3C=C[C@H]2C32CC2)cc1 (racemic) [Example 303]    7.35

A: O=C(NCCCCN1CCC1)[C@H]1[C@H](C(=O)Nc2ccc(Br)cc2)[C@@H]2C=C[C@H]1C21CC1 [Example 210]
B: O=C(NCCCCN1CCCC1)[C@H]1[C@H](C(=O)NCc2ccc(OC(F)(F)F)cc2)[C@@H]2C=C[C@H]1C21CC1 (racemic) [Example 232]
Identify the entry with the smaller pEC50: A or B . Respond with the label that goes with your answer.
B
(B: 5.90, A: 9.40)

I: CCOc1ccc(CNC(=O)C2C(C(=O)NCCCCN3CCCC3)C3C=CC2C32CC2)cc1 (stereo not shown) [Example 386]
II: O=C(NC1CC1)[C@H]1[C@H](C(=O)Nc2ccc(Br)cc2)[C@@H]2CC[C@H]1C21CC1 (racemic) [Example 106]
III: O=C(NCCCCN1CCCC1)C1C(C(=O)Nc2ccc(Br)nc2)C2C=CC1C21CC1 (racemic) [Example 114]
Order these by pEC50, descending, and give the full ranking. Form field (ranking): labels in requested order.
III, II, I

A: CC1(C(=O)NCC2C(C(=O)Nc3ccc(Br)cc3)C3C=CC2C32CC2)CC1(Cl)Cl (mixture of isomers) [Example 165]
B: CC(C)(C)OC(=O)NCCNC(=O)C1C(C(=O)Nc2ccc(Br)cc2)C2C=CC1C21CC1 (stereo not shown) [Example 27]
C: CC(=O)c1coc(CNC(=O)[C@H]2[C@H](C(=O)NCCCCN3CCCC3)[C@H]3C=C[C@@H]2C32CC2)n1 (racemic) [Example 243]
D: CC(NC(=O)C1C(C(=O)NCCCCN2CCCC2)C2C=CC1C21CC1)c1ccc(Br)cc1 (mixture of isomers) [Example 132]
Arrange the 4 entries by pEC50 so the values rise. Form field (ranking): labels in requested order.
D, C, A, B
